# assay_summary: TOR pathway GLN3 branch reporter MEP2-GFP changes – S. cerevisiae, multiplex flow cytometry, primary screen (AID 1867);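 further: median GFP channel fluorescence of barcode-gated MEP2-GFP cells measured by flow cytometry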
# recorded_conditions: S. cerevisiae MEP2-GFP strain, 3 h, at 10 µM, active compounds read high, 100% means same as DMSO wells
Records with an inconclusive call do not appear.
readout_name: GFP response vs DMSO (%)
Quick note: give the figure in %, leave out the unit.

O=c1oc2c(CN3CCCCC3)c(O)ccc2c2c1CCCCC2: 102

Problem: Recorded GFP response vs DMSO of C=CCC1(Cl)C(=O)C(Cl)=C(N2CCOCC2)C1(OC)OC (centres undefined) , please.
Solution: 94.1
